- Test system: blackgrass (Alopecurus myosuroides)
- assayMethodText: Test A postemergence, blackgrass
- Format: in vivo
- conditionSet: 125 g ai/ha, 0 to 100 scale, 0 no effect, 100 complete control
metricName: Plant response rating, Blackgrass
Output spec: single numeric token, no unit.

Query block: I have this compound here, CC(Nc1nc(N)c(C(F)(F)F)c(C(F)(F)F)n1)c1cc2ccccc2o1 (racemic) , and I need its recorded Plant response rating, Blackgrass.
Result block: 0

Query block: I have this compound here, Nc1nc(NC(c2cc3ccccc3o2)C2CC2)ncc1C(F)(F)F (stereo not drawn) [Compound 88] , and I need its recorded Plant response rating, Blackgrass.
Result block: 50

Query block: I have this compound here, CC(Nc1ncc(S(C)(=O)=O)c(N)n1)c1cc2ccccc2s1 (stereo not drawn) , and I need its recorded Plant response rating, Blackgrass.
Result block: 0

Query block: I have this compound here, CC(Nc1ncc(C(F)(F)F)c(N)n1)c1cc2c(Br)cccc2o1 (stereo not drawn) , and I need its recorded Plant response rating, Blackgrass.
Result block: 0

Query block: I have this compound here, C[C@H](Nc1ncc(C(F)(F)F)c(N)n1)c1cc2ccc(F)cc2s1 , and I need its recorded Plant response rating, Blackgrass.
Result block: 0

Query block: I have this compound here, Nc1nc(N[C@@H](c2coc3ccccc23)C2CC2)ncc1C(F)(F)F , and I need its recorded Plant response rating, Blackgrass.
Result block: 60

Query block: I have this compound here, C[C@H](Nc1ncc(C(F)(F)F)c(N)n1)c1cc2c(F)cccc2o1 , and I need its recorded Plant response rating, Blackgrass.
Result block: 0

Query block: I have this compound here, Nc1nc(NC(c2cc3ccccc3o2)C2CC2)ncc1C(F)(F)F (stereo not drawn) [Compound 89] , and I need its recorded Plant response rating, Blackgrass.
Result block: 0

Query block: I have this compound here, CC(Nc1ncc(C(F)(F)F)c(N)n1)c1cc2c(Cl)cccc2o1 (stereo not drawn) , and I need its recorded Plant response rating, Blackgrass.
Result block: 30
